Recorded growth inhibition by entry
Test details: NCI Yeast Anticancer Drug Screen. Data for the sgs1 mgt1 strain (AID 161);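 further: 0% = growth of cultures given vehicle only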
Details: S. cerevisiae sgs1 mgt1 strain, at 50.0 µM (retest, dose inferred, filed as 5.0), hits give high values
Method: Growth inhibition of yeast strains with defined genetic alterations is measured as a screen for potential anti-cancer activity. Selected strains with alterations in DNA damage repair or cell cycle control were exposed to compounds and growth inhibition was measured relative to vehicle treated controls. The strain used in this assay is sgs1 mgt1
About 79,000 compounds went through this panel and 15% of them were active in at least one assay; those are over-represented in the sample as a whole.
Please give a number only; it is taken to be in %.

COc1ccc(OC)c(CC(Cl)(C#N)C#N)c1: 99

Query: growth inhibition lookup needed for CC1OC(OP(=O)(OCc2ccccc2)OCc2ccccc2)C(OC(=O)c2ccccc2)C(OC(=O)c2ccccc2)C1I (stereo unspecified) , thanks.
Result: 96

Query: growth inhibition lookup needed for O=c1[nH][nH]c(=O)c2c1nc(SCc1ccccc1)n2Cc1ccccc1 , thanks.
Result: 2

Query: growth inhibition lookup needed for Cc1c2cc[n+](C)cc2c(C)c2c1[nH]c1ccc(Cl)cc12 , thanks.
Result: 99

Query: growth inhibition lookup needed for C/C(=C\c1ccccc1Cl)c1ccccn1 , thanks.
Result: 71

Query: growth inhibition lookup needed for O=C1CCCCC1Sc1ccc(Cl)cc1 (stereo unspecified) , thanks.
Result: 87

Query: growth inhibition lookup needed for Cc1cc2c(cc1C)[n+]([O-])c(-c1c(Cl)cccc1Cl)c(N)[n+]2[O-] , thanks.
Result: 100

Query: growth inhibition lookup needed for Cc1ccccc1C(CC(=O)O)C(C)c1ccccc1 (stereo unspecified) , thanks.
Result: 66

Query: growth inhibition lookup needed for CN(C)S(=O)(=O)c1cc(Cl)ccc1NN , thanks.
Result: -21

Query: growth inhibition lookup needed for Cc1ccnc2[nH]c3ccccc3c(=O)c12 , thanks.
Result: 96

Query: growth inhibition lookup needed for O=C(O)Cc1cccc2c(=O)c3cccc([N+](=O)[O-])c3[nH]c12 , thanks.
Result: 60
